meta.source: patent US20120029190A1

A collection of compounds and their measured IC50
Target: human recombinant mGluR5 receptor (Homo sapiens, UniProt P41594)
Construct: expressed in transfected cells; expression induced with doxycycline
Sequence (P41594 21-1212): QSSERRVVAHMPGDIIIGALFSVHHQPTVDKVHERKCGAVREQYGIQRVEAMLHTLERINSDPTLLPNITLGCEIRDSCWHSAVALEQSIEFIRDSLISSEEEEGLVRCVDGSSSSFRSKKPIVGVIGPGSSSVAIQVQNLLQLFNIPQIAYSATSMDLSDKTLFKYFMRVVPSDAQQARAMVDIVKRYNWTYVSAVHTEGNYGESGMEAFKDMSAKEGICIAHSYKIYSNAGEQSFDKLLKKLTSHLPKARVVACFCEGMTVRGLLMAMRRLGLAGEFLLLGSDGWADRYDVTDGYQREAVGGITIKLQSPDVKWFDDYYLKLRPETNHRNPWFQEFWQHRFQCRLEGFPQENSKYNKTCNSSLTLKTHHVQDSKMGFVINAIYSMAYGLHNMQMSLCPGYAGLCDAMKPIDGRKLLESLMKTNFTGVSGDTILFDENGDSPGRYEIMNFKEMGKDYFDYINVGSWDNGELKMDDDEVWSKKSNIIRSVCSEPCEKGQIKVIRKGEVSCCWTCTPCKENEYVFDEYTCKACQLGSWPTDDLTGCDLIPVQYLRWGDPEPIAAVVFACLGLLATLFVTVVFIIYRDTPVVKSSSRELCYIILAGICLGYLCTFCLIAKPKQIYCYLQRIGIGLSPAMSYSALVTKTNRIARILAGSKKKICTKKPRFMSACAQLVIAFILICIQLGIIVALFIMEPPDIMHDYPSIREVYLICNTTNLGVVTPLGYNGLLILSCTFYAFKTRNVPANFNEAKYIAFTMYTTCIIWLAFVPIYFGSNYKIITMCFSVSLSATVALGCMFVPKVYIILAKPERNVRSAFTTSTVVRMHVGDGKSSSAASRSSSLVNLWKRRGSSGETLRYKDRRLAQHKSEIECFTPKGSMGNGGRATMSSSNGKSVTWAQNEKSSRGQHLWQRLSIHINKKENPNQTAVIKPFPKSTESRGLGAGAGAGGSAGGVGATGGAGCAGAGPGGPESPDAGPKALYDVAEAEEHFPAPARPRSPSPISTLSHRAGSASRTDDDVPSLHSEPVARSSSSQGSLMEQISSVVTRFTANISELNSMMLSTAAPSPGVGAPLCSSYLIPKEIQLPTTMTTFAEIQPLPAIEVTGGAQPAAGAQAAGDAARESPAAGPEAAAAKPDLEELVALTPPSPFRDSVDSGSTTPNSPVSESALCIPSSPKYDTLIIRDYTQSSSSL
Test: mGluR5 in vitro functional assay (aequorin cell line, inhibition of glutamate EC80 response)
Type: cell-based
Details: Table 1; aequorin cell line expressing human mGluR5, reference agonist glutamate at EC80; obtained in duplicate; read-out: IC50

N#Cc1cccc(-c2nc3c(o2)CCN(c2ncccc2C#N)C3)c1 = < 10000 nM
Clc1cccc(N2CCCc3oc(-c4ccccn4)nc3C2)c1 = < 1000 nM
N#Cc1cccc(N2CCc3nc(-c4ccccn4)oc3C2)n1 = < 10000 nM

Need IC50, item "N#Cc1cc(C#N)cc(N2CCc3nc(-c4ccccn4)oc3C2)c1"
< 10000 nM

Now consider "Fc1cccc(N2CCn3nc(-c4ccccn4)nc3C2)c1" .
< 1000 nM

Likewise for "Cc1cccc(-c2nc3c(o2)CCN(c2ncccc2C#N)C3)c1" ?
< 1000 nM

Check "N#Cc1cc(N2CCCc3nc(-c4ccccn4)oc3C2)cc(C(F)(F)F)c1" too.
< 1000 nM

Okay, and "N#Cc1cc(F)cc(N2CCc3nc(-c4ccccn4)oc3CC2)c1" ?
< 1000 nM

----------
Measured pIC50 by item
Molecular target: human recombinant mGluR5 receptor (Homo sapiens)
Construct: expressed in transfected cells; expression induced with doxycycline
Experiment: mGluR5 in vitro functional assay (aequorin cell line, inhibition of glutamate EC80 response)
Assay type: cell-based
Details: Table 2; aequorin cell line expressing human mGluR5, reference agonist glutamate at EC80; obtained in duplicate; read-out: IC50
pIC50: −log10 of the molar value.

Fc1ccc(-c2nc3c(o2)CCN(c2cc(F)cc(Cl)c2)C3)nc1 = > 6.00

Recorded pIC50 of "Clc1cccc(N2CCc3oc(-c4ccccn4)nc3C2)c1Cl" , please.
> 6.00

Queued: "Fc1ccc(N2CCCc3oc(-c4ccccn4)nc3C2)cc1Cl"
> 6.00

Now try "COc1c(F)cc(N2CCCc3oc(-c4ccccn4)nc3C2)cc1C#N" .
> 6.00

Another compound to check: "O=C(CN1CCc2oc(-c3ccccn3)nc2C1)c1ccc(F)cc1"
< 5.00

Follow-up entry: "Fc1cccc(N2CCCc3oc(-c4cnccn4)nc3C2)c1"
> 5.00

----------
Molecular target: human recombinant mGluR5 receptor (Homo sapiens)
Construct: expressed in transfected cells; expression induced with doxycycline
Test: mGluR5 in vitro functional assay (aequorin cell line, inhibition of glutamate EC80 response)
Assay type: cell-based
Settings: Table 2; aequorin cell line expressing human mGluR5, reference agonist glutamate at EC80; obtained in duplicate; read-out: IC50
pIC50: −log10 of the molar value.
outcome measure: pIC50

Completed entries (count: 8):
Fc1ccc(N2CCc3oc(-c4ccccn4)nc3C2)cc1F [Compound 152] = > 6.00
N#Cc1ccc(F)c(N2CCc3oc(-c4ccccn4)nc3C2)c1 [Compound 185] = > 6.00
c1ccc(-c2nc3c(o2)CCN(c2cncnc2)C3)nc1 [Compound 131] = > 5.00
c1ccc(-c2nc3c(o2)CCN(c2ccccc2N2CCOCC2)C3)nc1 [Compound 193] = > 6.00
Fc1ccc([C@H]2CCc3oc(-c4ccccn4)nc3C2)c(Cl)c1 (single isomer, unassigned) [Compound 225] = > 6.00
N#Cc1cc(F)cc(N2CCCc3oc(-c4cnccn4)nc3C2)c1 [Compound 141] = > 6.00
Clc1cncc(N2CCCc3oc(-c4ncccn4)nc3C2)c1 [Compound 201] = > 5.00
Cc1nc(-c2nc3c(o2)CCCN(c2cc(F)cc(C#N)c2)C3)cs1 [Compound 145] = > 6.00

Requested read-out: pIC50. Entry: c1ccc(-c2nc3c(o2)CCN(c2cccc4[nH]ccc24)C3)nc1 [Compound 194]
> 6.00

Continue with Clc1cccc(N2CCCc3oc(-c4cnccn4)nc3C2)c1 [Compound 140]
> 5.00
